Source of measurements: the supplement of paper PMC6992640

Tested on: WHIM2 (cells of a triple-negative basal-like breast cancer xenograft)
Test: cell viability (% of vehicle); higher = less cytotoxic;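 also: PDX cells carrying CMV promoter-driven luciferase, viability read as total photon flux per second by IVIS imaging following D-luciferin, vehicle control 0.1% DMSO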
Settings: 10 µM; 72 h
Kindly supply the reported cell viability values for the records listed here.

Reported cell viability ( CC(C(=O)[O-])c1cccc(Oc2ccccc2)c1.CC(C(=O)[O-])c1cccc(Oc2ccccc2)c1.[Ca+2] (stereo not drawn) ) = 98.7

Reported cell viability ( O=C(O)CCNC(=O)c1ccc(/N=N/c2ccc(O)c(C(=O)O)c2)cc1 [Balsalazide] ) = 98.8

Reported cell viability ( CC1(c2nc3c(C(N)=O)cccc3[nH]2)CCCN1 (stereo not drawn) ) = 101

====

System: WHIM30 (cells of a triple-negative basal-like breast cancer xenograft)
Assay: cell viability (% of vehicle); higher = less cytotoxic
Details: 10 µM; 72 h
Rule: cell viability below 100 gives TRUE. Equal to or above 100 gives FALSE.

Task: Criterion: cell viability strictly below 100. Is it met by CCOC(=O)C(CCc1ccccc1)NC1CCc2ccccc2N(CC(=O)O)C1=O.Cl (centres undefined) [Benazepril HCl] ?
Result: FALSE

Task: Criterion: cell viability strictly below 100. Is it met by Nc1ncnc2c1ncn2C1OC(CO)C(O)C1O (centres undefined) ?
Result: FALSE

Task: Criterion: cell viability strictly below 100. Is it met by CC1(C)O[C@@H]2C[C@H]3[C@@H]4CCC5=CC(=O)CC[C@]5(C)[C@@]4(F)[C@@H](O)C[C@]3(C)[C@]2(C(=O)CCl)O1 [Halcinonide] ?
Result: FALSE

Task: Criterion: cell viability strictly below 100. Is it met by CCc1ccc(CCOc2ccc(CC3SC(=O)NC3=O)cc2)nc1 (centres undefined) ?
Result: FALSE

Task: Criterion: cell viability strictly below 100. Is it met by CCCCNc1cc(C(=O)O)cc(S(N)(=O)=O)c1Oc1ccccc1 [Bumetanide] ?
Result: FALSE

Task: Criterion: cell viability strictly below 100. Is it met by CN(C)CCOC(c1ccccc1)c1ccccc1.Cl [Diphenhydramine HCl] ?
Result: FALSE

Task: Criterion: cell viability strictly below 100. Is it met by CCN1CCN(Cc2ccc(Nc3ncc(F)c(-c4cc(F)c5nc(C)n(C(C)C)c5c4)n3)nc2)CC1.CS(=O)(=O)O ?
Result: TRUE

Task: Criterion: cell viability strictly below 100. Is it met by COc1ccc(CN2CCN(C(c3ccc(F)cc3)c3ccc(F)cc3)CC2)c(OC)c1OC.Cl.Cl [Lomerizine HCl] ?
Result: TRUE
